Biological target: T1, human ILT4-ECD protein (human, UniProt Q8N423 22-460)
T1 construct: also called HuILT4; LILRB2 (ILT4)
T1 sequence (Q8N423 other isoform, or with tags, fused parts or gaps limits assumed): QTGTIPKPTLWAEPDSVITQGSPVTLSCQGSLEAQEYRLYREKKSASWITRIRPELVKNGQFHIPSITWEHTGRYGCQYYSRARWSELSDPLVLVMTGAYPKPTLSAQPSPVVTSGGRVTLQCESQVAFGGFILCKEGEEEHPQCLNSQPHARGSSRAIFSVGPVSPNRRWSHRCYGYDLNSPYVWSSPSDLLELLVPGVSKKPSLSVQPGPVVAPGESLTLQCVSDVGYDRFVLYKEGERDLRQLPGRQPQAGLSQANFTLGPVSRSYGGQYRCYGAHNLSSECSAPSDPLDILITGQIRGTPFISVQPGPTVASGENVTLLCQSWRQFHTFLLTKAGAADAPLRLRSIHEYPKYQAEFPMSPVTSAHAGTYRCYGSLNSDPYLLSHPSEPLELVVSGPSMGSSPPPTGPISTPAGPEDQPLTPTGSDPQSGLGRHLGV
Assay: BLI (Octet RED96e), antibody on AHC biosensor, HuILT4 at 100/50/25 nM
readout.kind: Kd (pM)
Write the value in pM as a bare number.

Answered cases to consult:
PR302261 (antibody, human IgG1, kappa, V domains shown, IgG1; also called PR302261 (IgG1)) VH: EVQLLESGGGLVQSGGSLRLSCAASGFTFSSYAMSWVRQAPGKGLGWVSTISGSGGSAYYADSVKGRFTVSRDNSKKTLYLQMNSLRAEDTAVYFCAILSGDDAFDIWGQGTMVTVSS VL: DVVMTQSPLSLPVTPGEPASISCRSSQSLLRGNGYNYLDWYLQKPGQSPQLLIYLGSNRASGVPDRFSGSGSGTDFTLKISRVEAEDVGIFYCMQALQSPLTFGGGTKVEIKR    984
PR302949 (antibody, human IgG1, kappa, V domains shown, IgG1; also called PR302949 (IgG1)) VH: EVQLLESGGGLVQPGGSLRLSCAASGFTFSSYAMSWVRQAPGKGLEWVSSISGSDFSTYYADSVKGRFTISRDTSKNTLYLQMNSLRAEDTAVYYCAKDRQWLVSSFDFWGQGALVTVSS VL: DIQMTQSPSSLSASVGDRVTITCQASQDISNYLNWYQQKPGKAPKLLIYDASNLETGVPSRFSGSGSGTDFTFTISSLQPEDIATYYCQQYDNLITFGQGTRLEIKR    454

Next item in the queue.
Task: Report Kd for PR302282 (antibody, human IgG1, kappa, V domains shown, IgG1; also called PR302282 (IgG1)) VH: QVQLVESGGTVVQSGRSLRLSCAASGFTFSSYGMHWVRQAPGKGLEWVAGMWYDGNYKYYADSVKGRFTISRDNSKNTLSLQMNSLRAEDTAVYYCARDSPIGVFDYWGQGTLVTVSS VL: DIQMTQSPSSLSASVGDRVTITCQASQDISNYLNWYQQKPGKAPKLLIYDASNLETGVPSRFSGSGSGTDFTFTISSLQPEDIATYYCQQYDNLITFGQGTRLEIKR please.
Result: 124
